Entries and their cAMP Emax values follow.
system tested: hGLP-1R (Homo sapiens, UniProt P43220)
assay info: cell-based or functional assay

binder	result units	cAMP Emax
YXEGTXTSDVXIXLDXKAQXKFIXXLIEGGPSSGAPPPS (Y-Aib-EGT-αMeF(2F)-TSDV-Aib-I-αMeL-LD-Orn-K((2-[2-(2-Amino-ethoxy)-ethoxy]-acetyl)-(γ-Glu)-(10-(4-carboxyphenoxy)decanoyl))AQ-Aib-K((2-[2-(2-Amino-ethoxy)-ethoxy]-acetyl)-(γ-Glu)-(10-(4-carboxyphenoxy)decanoyl))FI-(D-Glu)-αMeY-LIEGGPSSGAPPPS-NH2) [Example 378]	%	98.9
YXEGTXTSDXSIXLDXKAQXXFIXXLIKGGPSSGAPPPS (Y-Aib-EGT-αMeF(2F)-TSD-4Pal-SI-αMeL-LD-Orn-K((2-[2-(2-Amino-ethoxy)-ethoxy]-acetyl)2-(γ-Glu)-CO-(CH2)10-CH3)AQ-Aib-Orn-FI-(D-Glu)-αMeY-LIK((2-[2-(2-Amino-ethoxy)-ethoxy]-acetyl)2-(γ-Glu)-CO-(CH2)10-CH3)GGPSSGAPPPS-NH2) [Example 299]	%	103
YXEGTXTSDXSIXLDXKAQXKFIXXLIXGGPSSGAPPPS (Y-Aib-EGT-αMeF(2F)-TSD-4Pal-SI-αMeL-LD-Orn-K((2-[2-(2-Amino-ethoxy)-ethoxy]-acetyl)2-(γ-Glu)-CO-(CH2)10-CH3)AQ-Aib-K((2-[2-(2-Amino-ethoxy)-ethoxy]-acetyl)2-(γ-Glu)-CO-(CH2)10-CH3)FI-(D-Glu)-αMeY-LI-Orn-GGPSSGAPPPS-NH2) [Example 298]	%	106
YXEGTXTSDXXIXLDXKAQXEXIXXLIEGGPSSGAPPPSK (not fully specified; Y-Aib-EGT-αMeF(2F)-TSD-4Pal-Aib-I-αMeL-LD-Orn-K((2-[2-(2-Amino-ethoxy)-ethoxy]-acetyl)2-(γ Glu)-CO-(CH2)10C3)AQ-Aib-E-αMeF-I-(D-Glu)-αMeY-LIEGGPSSGAPPPSK((2-[2-(2-Amino-ethoxy)-ethoxy]-acetyl)2-(γ-Glu)-CO-(CH2)10-CH3)-NH2) [Example 431]	%	99.2
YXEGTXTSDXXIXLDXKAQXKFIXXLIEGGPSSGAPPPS (Y-Aib-EGT-αMeF(2F)-TSD-4Pal-Aib-I-αMeL-LD-Orn-K((2-[2-(2-Amino-ethoxy)-ethoxy]-acetyl)-(γ-Glu)-CO-(CH2)12-CO2H)AQ-Aib-K((2-[2-(2-Amino-ethoxy)-ethoxy]-acetyl)-(γ-Glu)-CO-(CH2)12-CO2H)FI-(D-Glu)-αMeY-LIEGGPSSGAPPPS-NH2) [Example 336]	%	107
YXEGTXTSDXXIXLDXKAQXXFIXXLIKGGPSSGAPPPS (Y-Aib-EGT-αMeF(2F)-TSD-4Pal-Aib-I-αMeL-LD-Orn-K((2-[2-(2-Amino-ethoxy)-ethoxy]-acetyl)2-(α-Glu)-(10-(4-carboxyphenoxy)decanoyl))AQ-Aib-Om-FI-(D-Glu)-αMeY-LIK((2-[2-(2-Amino-ethoxy)-ethoxy]-acetyl)2-(γ-Glu)-(10-(4-carboxyphenoxy)decanoyl))GGPSSGAPPPS-NH2) [Example 351]	%	100
